Where do these numbers come from? They come from PubChem BioAssay (Tox21).

test: qHTS assay for identifying genotoxic compounds that show differential cytotoxicity against isogenic chicken DT40 cell lines with known DNA damage response pathways - Rad54/Ku70 mutant cell line (AID 743015); conditions: DT40 Rad54/Ku70 mutant viability, CellTiter-Glo, 40 h; series mostly up to 66.8 µM; note: nearly all actives have a fitted effect of over 60% in size
Records with an inconclusive call do not appear. Active and inactive are the calls of the source. Calls come from the whole dose curve; as a rule, active = well fitted cell-killing curve with a large enough effect in the repeat runs; inconclusive = weak or mixed curves; inactive = no such curve, though single readings can be large or run the other way.
Labels: label 1 = active, label 0 = inactive

Molecule: CCC(Cl)CC(Cl)C(Cl)C(Cl)C(Cl)C(C)Cl (stereo not given)
Group: label 0

Molecule: COc1ccc(-n2nc(C(F)F)cc2-c2ccc(S(C)=O)cc2)cc1 (stereo not given)
Group: label 1

Molecule: CC(CN(CCN(CC(C)OCCO)CC(C)OCCO)CC(C)OCCO)OCCO (stereo not given)
Group: label 1

Molecule: O=C(O)c1cc(Cl)cc(Cl)c1O
Group: label 0

Molecule: CC(=O)NCCO
Group: label 0

Molecule: c1ccc2sc(SSc3nc4ccccc4s3)nc2c1
Group: label 0

Molecule: CC(=O)OCCC(C)CC(C)(C)C (stereo not given)
Group: label 0

Molecule: CC(C(=O)O)c1ccc(C(=O)c2cccs2)cc1 (stereo not given)
Group: label 0

Molecule: COC1CCC=CO1 (stereo not given)
Group: label 0

Molecule: Nc1ccc(S(=O)(=O)NCc2ccccc2)cc1
Group: label 0

Molecule: CC(C)(C(=O)c1cccnc1)c1cccnc1
Group: label 0

Molecule: Cc1c[nH]c2ccccc12
Group: label 0

Molecule: CC(=O)N[C@@H](Cc1ccc(O)cc1)C(=O)O
Group: label 0

Molecule: O=CNNC=O
Group: label 0

Molecule: CC(C)C(=O)OCCOc1ccccc1
Group: label 0

Molecule: C/C(C=O)=C\c1ccccc1
Group: label 0

Molecule: COc1cc(S(=O)(=O)Nc2ccccc2)c(OC)cc1N
Group: label 0

Molecule: O=S(=O)(O)CO
Group: label 0

Molecule: O=C(O)c1cccc(Oc2ccccc2)c1
Group: label 0

Molecule: COc1ccc(N)c([N+](=O)[O-])c1
Group: label 0

Molecule: CC1CCCC(=O)C1=O (stereo not given)
Group: label 0

Molecule: O=P(O)(O)Oc1ccccc1
Group: label 0

Molecule: O=C(CCS)OCC(COC(=O)CCS)(COC(=O)CCS)COC(=O)CCS
Group: label 0

Molecule: CC12CC3CC(C)(C1)CC(N)(C3)C2
Group: label 1

Molecule: c1ccc(CCCc2ccncc2)cc1
Group: label 0

Molecule: O=C(/C=C/c1ccc([N+](=O)[O-])cc1)c1ccccc1
Group: label 0

Molecule: C=CC(=O)NC(C)C
Group: label 0

Molecule: O=C(Nc1ccc(C(=O)O)c(O)c1)c1ccccc1
Group: label 0

Molecule: CC1CCC(C(C)CS)CC1S (stereo not given)
Group: label 0

Molecule: CC(C)C1CCC(C(=O)N[C@H](Cc2ccccc2)C(=O)O)CC1 (stereo not given in full)
Group: label 0

====

molecular target: Vitamin D3 receptor (Homo sapiens); test: qHTS assay to identify small molecule agonists of the vitamin D receptor (VDR) signaling pathway (AID 743222); conditions: HEK293T VDR-UAS-bla, beta-lactamase FRET ratio, 16 h; series mostly up to 63.5 µM
Records with an inconclusive call do not appear. The source made the active and inactive calls. Calls come from the whole dose curve.

Compound: CC(C)C(O)C(C)(C)CO (stereo not drawn)
outcome: inactive
--
Compound: COc1cc(NCc2ccc3nc(N)nc(N)c3c2C)cc(OC)c1OC
outcome: inactive
--
Compound: ClC1=C(Cl)C1(Cl)Cl
outcome: inactive
